# PROCEDURE TEXT: Pharmacokinetics of gefitinib in rats, alone and coadministered with CJ (serum, LC-MS/MS)
# Type: in vivo
# APPLIED CONDITIONS: male, Sprague-Dawley, rat, serum, po, 50 mg/kg, gefitinib 50 mg/kg oral + water, rats, serum, mean ± S.E., n = 5
MEASURE: Cmax (ng/mL)
Write the value in ng/mL as a bare number.

Lookup: Data request, read-out Cmax, for `COc1cc2ncnc(Nc3ccc(F)c(Cl)c3)c2cc1OCCCN1CCOCC1`
Found: 1800

###

# PROCEDURE TEXT: Pharmacokinetics of gefitinib in rats, alone and coadministered with CJ (serum, LC-MS/MS)
# Format: in vivo
# APPLIED CONDITIONS: male, Sprague-Dawley, rat, serum, po, 50 mg/kg, gefitinib 50 mg/kg oral coadministered with CJ (5.0 g/kg of cranberry), rats, mean ± S.E., n = 5
MEASURE: Tmax (h)
Write the value in h as a bare number.

Lookup: Data request, read-out Tmax, for `COc1cc2ncnc(Nc3ccc(F)c(Cl)c3)c2cc1OCCCN1CCOCC1`
Found: 3.6

Hello, the source for this data is paper PMC9501900, in case you need it.
